# Subject Of Test: CDK19/Cyclin C (Homo sapiens)
# Sequence (Q9BWU1 whole entry): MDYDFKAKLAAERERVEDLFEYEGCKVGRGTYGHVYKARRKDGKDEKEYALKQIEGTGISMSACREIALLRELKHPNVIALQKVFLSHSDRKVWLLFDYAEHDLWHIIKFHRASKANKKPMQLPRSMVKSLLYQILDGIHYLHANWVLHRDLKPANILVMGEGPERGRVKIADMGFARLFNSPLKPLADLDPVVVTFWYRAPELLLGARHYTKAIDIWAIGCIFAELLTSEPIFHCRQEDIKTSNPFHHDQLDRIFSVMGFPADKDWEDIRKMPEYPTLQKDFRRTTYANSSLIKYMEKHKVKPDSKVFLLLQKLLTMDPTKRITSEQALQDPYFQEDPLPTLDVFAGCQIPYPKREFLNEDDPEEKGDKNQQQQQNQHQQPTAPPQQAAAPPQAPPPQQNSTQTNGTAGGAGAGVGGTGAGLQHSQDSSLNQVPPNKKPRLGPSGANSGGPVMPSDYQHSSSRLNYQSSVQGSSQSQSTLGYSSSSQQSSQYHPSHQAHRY
# Sequence (P24863 whole entry partner): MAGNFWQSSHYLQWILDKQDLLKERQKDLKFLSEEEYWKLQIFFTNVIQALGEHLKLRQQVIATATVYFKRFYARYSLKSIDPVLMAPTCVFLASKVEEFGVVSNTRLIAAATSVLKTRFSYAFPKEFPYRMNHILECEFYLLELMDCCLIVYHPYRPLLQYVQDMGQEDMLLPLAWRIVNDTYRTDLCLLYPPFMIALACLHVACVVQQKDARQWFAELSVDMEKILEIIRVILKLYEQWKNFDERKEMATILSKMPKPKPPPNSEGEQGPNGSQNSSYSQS
# Assay Text: NanoBRET live-cell target engagement, NanoLuc-CDK19/Cyclin C in HEK-293
# Assay Setup: read-out: CDK19/C IC50; independent experiment 1
Measurement Label: pIC50
# pIC50: negative log10 of molar concentration; output just the value

In: Bench note: what pIC50 did Cc1c(Br)c(Br)c2c3c1nc(N1CCNCC1)n3CCC2.Cl [SEL 120-34A] show?
Out: 6.92

###

# Subject Of Test: CDK10/Cyclin L2 (Homo sapiens)
# Sequence (Q15131 whole entry): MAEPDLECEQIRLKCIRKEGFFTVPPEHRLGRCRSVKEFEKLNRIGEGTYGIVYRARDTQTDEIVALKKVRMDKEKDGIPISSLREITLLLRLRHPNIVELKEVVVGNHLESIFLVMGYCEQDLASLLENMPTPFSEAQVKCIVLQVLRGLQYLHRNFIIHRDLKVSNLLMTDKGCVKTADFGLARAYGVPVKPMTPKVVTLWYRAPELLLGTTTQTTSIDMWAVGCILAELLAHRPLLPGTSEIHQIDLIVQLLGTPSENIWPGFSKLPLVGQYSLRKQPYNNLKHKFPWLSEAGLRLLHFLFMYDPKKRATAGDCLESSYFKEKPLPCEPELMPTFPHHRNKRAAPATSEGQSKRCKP
# Assay Text: NanoBRET live-cell target engagement, CDK10-NanoLuc/Cyclin L2 in HEK-293
# Assay Setup: read-out: CDK10/L2 IC50; independent experiment 1
Measurement Label: IC50 (nM)
The figure you give is taken to be in nM; do not add the unit.

In: For CN(C)C/C=C/C(=O)Nc1ccc(C(=O)Nc2cccc(Nc3ncc(Cl)c(-c4c[nH]c5ccccc45)n3)c2)cc1 , what is its reported IC50?
Out: 660

###

# Subject Of Test: CDK4/Cyclin D1 (Homo sapiens)
# Sequence (P11802 whole entry): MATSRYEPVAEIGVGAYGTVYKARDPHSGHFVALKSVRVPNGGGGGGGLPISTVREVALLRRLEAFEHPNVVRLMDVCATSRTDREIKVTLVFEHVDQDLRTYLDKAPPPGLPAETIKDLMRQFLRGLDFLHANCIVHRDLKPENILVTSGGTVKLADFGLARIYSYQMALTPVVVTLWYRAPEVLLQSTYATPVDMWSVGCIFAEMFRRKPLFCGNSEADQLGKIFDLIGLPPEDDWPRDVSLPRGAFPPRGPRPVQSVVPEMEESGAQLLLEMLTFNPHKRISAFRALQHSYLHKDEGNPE
# Sequence (P24385 whole entry partner): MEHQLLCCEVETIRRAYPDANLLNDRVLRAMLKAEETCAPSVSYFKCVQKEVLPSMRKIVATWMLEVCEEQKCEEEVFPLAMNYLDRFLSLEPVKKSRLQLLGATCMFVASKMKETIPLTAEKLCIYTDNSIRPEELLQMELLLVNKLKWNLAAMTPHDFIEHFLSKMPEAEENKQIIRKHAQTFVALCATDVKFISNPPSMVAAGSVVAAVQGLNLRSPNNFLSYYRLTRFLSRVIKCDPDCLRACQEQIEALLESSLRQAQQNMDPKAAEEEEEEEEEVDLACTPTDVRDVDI
# Assay Text: NanoBRET live-cell target engagement, NanoLuc-CDK4/Cyclin D1 in HEK-293
# Assay type: binding
# Assay Setup: 10µM; independent experiment 1; read-out: CDK4/D1 Inhibition at 10µM (%)
Measurement Label: inhibition at 10 µM (%)
Give the value, in units of %, as a plain number.

COCCN1CCN(Cc2ccc(-c3n[nH]c4c3C(=O)c3c(NC(=O)NN5CCOCC5)cccc3-4)cc2)CC1 ... 99.7
CC(C)CC(=O)Nc1[nH]nc2c1CN(C(=O)C1CCN(C)CC1)C2(C)C ... 82.5

In: Recall the recorded inhibition at 10 µM for CN(C)C(=O)c1cc2cnc(Nc3ccc(N4CCNCC4)cn3)nc2n1C1CCCC1 with CDK4/Cyclin D1 (Homo sapiens) and state it.
Out: 97.2

In: What do you have for CC[C@H](CO)Nc1nc(NCc2ccccc2)c2ncn(C(C)C)c2n1 ?
Out: 29.6

In: Now consider CN1C/C=C/CCOc2cccc(c2)-c2ccnc(n2)Nc2cccc(c2)C1 and answer again.
Out: 100

In: Moving on to the next molecule: CN1CCN(c2ccc(Nc3ncc4cc5n(c4n3)C3(CCCCC3)CNC5=O)nc2)CC1
Out: 97

In: Same question for CN(C)C/C=C/C(=O)Nc1ccc(C(=O)N2CCC[C@@H](Nc3ncc(Cl)c(-c4c[nH]c5ccccc45)n3)C2)cc1 please.
Out: 47.7

In: Same question for CC(C)[C@H](CO)Nc1nc(Nc2ccc(C(=O)O)c(Cl)c2)c2ncn(C(C)C)c2n1 please.
Out: 8.3

###

IC50 for assorted molecules
# Subject Of Test: CDK15/Cyclin Y (Homo sapiens)
# Sequence (Q96Q40 whole entry): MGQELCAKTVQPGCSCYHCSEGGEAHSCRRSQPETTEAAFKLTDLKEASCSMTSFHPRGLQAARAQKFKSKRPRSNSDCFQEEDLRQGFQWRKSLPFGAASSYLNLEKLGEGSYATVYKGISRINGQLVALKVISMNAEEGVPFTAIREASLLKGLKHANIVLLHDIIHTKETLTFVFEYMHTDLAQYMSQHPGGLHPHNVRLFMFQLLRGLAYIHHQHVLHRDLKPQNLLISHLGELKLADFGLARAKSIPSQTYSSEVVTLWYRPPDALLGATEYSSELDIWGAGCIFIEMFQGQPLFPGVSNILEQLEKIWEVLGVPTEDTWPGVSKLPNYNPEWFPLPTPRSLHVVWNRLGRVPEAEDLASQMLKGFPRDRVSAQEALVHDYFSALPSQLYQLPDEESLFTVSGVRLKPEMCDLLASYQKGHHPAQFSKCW
# Sequence (Q8ND76 whole entry partner): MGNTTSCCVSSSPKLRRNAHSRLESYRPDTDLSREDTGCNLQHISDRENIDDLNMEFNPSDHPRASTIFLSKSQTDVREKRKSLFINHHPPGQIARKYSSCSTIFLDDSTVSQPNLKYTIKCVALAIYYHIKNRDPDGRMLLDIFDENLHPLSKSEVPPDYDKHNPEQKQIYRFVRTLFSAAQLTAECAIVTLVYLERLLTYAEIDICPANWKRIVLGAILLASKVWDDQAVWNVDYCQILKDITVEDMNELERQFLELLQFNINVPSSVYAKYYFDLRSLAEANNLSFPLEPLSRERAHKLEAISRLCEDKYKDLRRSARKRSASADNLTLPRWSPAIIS
# Assay Text: NanoBRET live-cell target engagement, NanoLuc-CDK15/Cyclin Y in HEK-293
# Type: binding
# Assay Setup: average (± SEM where n=3); read-out: CDK15/Y IC50
State the answer as a number, implicitly in nM.

CN1C/C=C/CCOc2cccc(c2)-c2ccnc(n2)Nc2cccc(c2)C1 ... 58

Could you now consider this next molecule?
In: Query IC50 on CDK15/Cyclin Y (Homo sapiens) for COCCN1CCN(Cc2ccc(-c3n[nH]c4c3C(=O)c3c(NC(=O)NN5CCOCC5)cccc3-4)cc2)CC1
Out: 14
